molecular target: NLRP3 (Homo sapiens); construct: purchased ICE YM2306T-H06MHS; assay: NLRP3 Enzymatic Activity ADP-Glo Assay (Example B-4); format: biochemical; conditions: hydrolysis of ATP by NLRP3; NLRP3 15 nM, ATP 1 μM; read-out: NLRP3_ADP-Glo_IC50 (nM), Example B-4
Sequence (Q96P20 whole entry): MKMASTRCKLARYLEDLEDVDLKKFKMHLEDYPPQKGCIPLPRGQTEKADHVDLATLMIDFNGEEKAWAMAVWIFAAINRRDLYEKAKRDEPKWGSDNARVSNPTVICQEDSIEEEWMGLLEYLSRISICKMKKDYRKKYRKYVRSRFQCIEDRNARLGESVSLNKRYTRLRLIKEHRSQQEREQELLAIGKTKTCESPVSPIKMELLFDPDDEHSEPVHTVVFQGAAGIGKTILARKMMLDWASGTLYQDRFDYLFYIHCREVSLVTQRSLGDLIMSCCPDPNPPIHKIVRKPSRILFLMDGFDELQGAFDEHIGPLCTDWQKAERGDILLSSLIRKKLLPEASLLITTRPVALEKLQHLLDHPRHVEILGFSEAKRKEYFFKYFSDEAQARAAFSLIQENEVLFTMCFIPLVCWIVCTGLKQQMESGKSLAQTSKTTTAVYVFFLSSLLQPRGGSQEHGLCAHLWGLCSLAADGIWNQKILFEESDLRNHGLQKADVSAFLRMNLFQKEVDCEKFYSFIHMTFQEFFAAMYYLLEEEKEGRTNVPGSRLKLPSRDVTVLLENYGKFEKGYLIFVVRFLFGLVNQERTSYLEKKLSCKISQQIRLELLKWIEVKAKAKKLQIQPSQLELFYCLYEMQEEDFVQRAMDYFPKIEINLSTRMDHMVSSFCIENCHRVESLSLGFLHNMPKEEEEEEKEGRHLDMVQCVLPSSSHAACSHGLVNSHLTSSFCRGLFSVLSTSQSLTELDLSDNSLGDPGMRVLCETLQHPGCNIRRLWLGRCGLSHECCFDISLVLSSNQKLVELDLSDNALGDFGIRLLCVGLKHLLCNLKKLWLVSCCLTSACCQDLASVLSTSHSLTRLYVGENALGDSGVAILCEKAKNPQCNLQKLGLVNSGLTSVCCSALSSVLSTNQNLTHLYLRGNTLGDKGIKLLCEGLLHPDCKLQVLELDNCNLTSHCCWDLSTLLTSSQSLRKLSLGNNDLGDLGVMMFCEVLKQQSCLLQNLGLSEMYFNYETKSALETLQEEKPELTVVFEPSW
I'd be grateful if you could share measured IC50 for these entries.

Memo: `Cc1cc(C(F)(F)F)cc(O)c1C1=NN=C(N[C@H]2C[C@@](C)(O)C2)SC1` , reported IC50: 10 to 100 nM

Sure, the documented IC50 for `CC#Cc1cc(C)c(C2=NN=C(N[C@@H]3CCCN(C)C3)SC2)c(O)c1` is 100 to 1000 nM

IC50 reading for `Cc1cc(C(F)(F)F)cc(O)c1C1=NN=C(N[C@@H]2CCCN(C)C2)N(C)C1` : 100 to 1000 nM

Entry `Cc1cc2c(c(O)c1C1=NN=C(N(C)[C@@H]3CCCN(C)C3)SC1)CCO2` , IC50 reported as 100 to 1000 nM

Entry under test: `C[C@]1(O)C[C@@H](NC2=NN=C(c3c(C(F)F)cc4c(c3O)CCO4)CS2)C1` . Its IC50 was 10 to 100 nM

Value of IC50 reported for the compound `Cc1cc(C(F)(F)F)cc(O)c1C1=NN=C(N[C@H]2C[C@@](C)(O)C2)C(C)(C)S1` is 10 to 100 nM

For this compound ( `Cc1cc2c(c(O)c1C1=NN=C(N[C@@H]3CCCN(C)C3)CS1)CCO2` ), measured IC50 is < 10 nM

The recorded IC50 for `Cc1cc(C#N)cc(O)c1C1=NN=C(N[C@@H]2CCCN(C)C2)SC1` is 10 to 100 nM

Kindly note the recorded IC50 for `Cc1cc2c(c(O)c1C1=NN=C(N[C@H]3C[C@@](C)(O)C3)CS1)CCO2` , which is 10 to 100 nM

Entry under test: `Cc1cc2occc2c(O)c1C1=NN=C(N[C@H]2C[C@@](C)(O)C2)SC1` . Its IC50 was < 10 nM

GET /value?item= `Cc1cc(C(F)(F)F)cc(O)c1C1=NN=C(NCCC(N)=O)SC1` &field=IC50 returns > 1000 nM

Notebook: `Cc1cc2c(c(O)c1C1=NN=C(N[C@]34CC[C@](O)(C3)C4)SC1)CCO2` , IC50 read as 100 to 1000 nM
